biological target: human T1R2 ATD (Homo sapiens); construct: or Ser25-Thr489 in the 8xHis-Tag; assay: Intrinsic fluorescence spectroscopy, human T1R2 ATD; conditions: h-T1R2 ATD, excitation 280 nm, signal at 336 nm; read-out: ligand concentration at half of the maximal value of fluorescence change
Sequence (Q8TE23 25-489): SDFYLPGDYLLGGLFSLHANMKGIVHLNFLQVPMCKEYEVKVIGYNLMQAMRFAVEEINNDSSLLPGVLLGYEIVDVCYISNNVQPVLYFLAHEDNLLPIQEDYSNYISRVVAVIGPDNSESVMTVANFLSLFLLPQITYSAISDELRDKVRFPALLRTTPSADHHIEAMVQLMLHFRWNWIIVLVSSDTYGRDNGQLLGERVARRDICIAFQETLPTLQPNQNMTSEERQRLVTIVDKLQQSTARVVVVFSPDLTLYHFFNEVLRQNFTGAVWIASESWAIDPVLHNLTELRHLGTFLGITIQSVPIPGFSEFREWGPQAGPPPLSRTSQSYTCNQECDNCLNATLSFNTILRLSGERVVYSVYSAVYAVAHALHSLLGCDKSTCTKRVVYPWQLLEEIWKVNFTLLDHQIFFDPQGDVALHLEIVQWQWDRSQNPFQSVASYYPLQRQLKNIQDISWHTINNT
readout: EC50 (µM)
Answers are plain numbers, in µM.

Measured EC50 of OC[C@H]1O[C@H](O[C@]2(CCl)O[C@H](CCl)[C@@H](O)[C@@H]2O)[C@H](O)[C@@H](O)[C@H]1Cl [Sucralose] : 5

* * *

List of pKd tested on human T1R2 ATD (Homo sapiens).
Answers are plain numbers, as −log10 of the molar value.

Take a look at these entries with their results.
chemical-structure	recorded-measurement
OC[C@H]1O[C@@](CO)(O[C@H]2O[C@H](CO)[C@@H](O)[C@H](O)[C@H]2O)[C@@H](O)[C@@H]1O	4.40
N[C@H](Cc1c[nH]c2ccccc12)C(=O)O	3.30
OC[C@H]1O[C@H](O[C@]2(CCl)O[C@H](CCl)[C@@H](O)[C@@H]2O)[C@H](O)[C@@H](O)[C@H]1Cl	4.40

Here is the next item to consider.
Measured pKd of `CC1=CC(=O)NS(=O)(=O)O1` : 4.00

* * *

target: mouse T1R2 ATD (Mus musculus); construct: The mouse 8xHis-Tev-ATD-mT1R2 construct ranged from residues Gly2-Pro466; experiment: Intrinsic fluorescence spectroscopy, mouse T1R2 ATD; conditions: excitation 280 nm, signal at 336 nm, read-out: half-maximal value of fluorescence intensity decrease
Sequence (Q925I4 2-465 limits assumed): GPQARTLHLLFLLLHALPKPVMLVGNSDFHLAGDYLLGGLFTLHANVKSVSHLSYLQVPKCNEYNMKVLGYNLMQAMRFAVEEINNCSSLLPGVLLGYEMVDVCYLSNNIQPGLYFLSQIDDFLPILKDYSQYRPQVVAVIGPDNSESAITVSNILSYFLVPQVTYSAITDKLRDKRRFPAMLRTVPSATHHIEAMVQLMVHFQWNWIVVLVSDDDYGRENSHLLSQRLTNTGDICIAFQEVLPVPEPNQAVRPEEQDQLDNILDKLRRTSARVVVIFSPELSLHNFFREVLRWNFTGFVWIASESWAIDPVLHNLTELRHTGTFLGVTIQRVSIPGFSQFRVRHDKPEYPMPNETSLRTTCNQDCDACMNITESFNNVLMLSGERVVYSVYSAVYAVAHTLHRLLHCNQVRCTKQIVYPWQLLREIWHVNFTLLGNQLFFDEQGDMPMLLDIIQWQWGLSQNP
readout: EC50 (µM)
Answers are plain numbers, in µM.

Measured EC50 of `OC[C@H]1O[C@@](CO)(O[C@H]2O[C@H](CO)[C@@H](O)[C@H](O)[C@H]2O)[C@@H](O)[C@@H]1O` : 8
